Below, each entry is listed alongside its reported TGI.
# System: COLO 205 colon
# experimentalProtocol: NCI tumour cell line growth inhibition, 48 h

| compound | TGI |
| --- | --- |
| O=C(/C=C/c1ccc(O)cc1)NCCc1ccc(O)cc1 | > 12.5 µM |

Q: Record request: TGI value, item CCOC(=O)C(C)c1cc(C2(C)OCCO2)c(C)o1 (stereo not drawn)
Result: > 100 µM

Q: Record request: TGI value, item CC(C)(C)N1NC1C1NN1C(C)(C)C (stereo not drawn)
Result: > 100 µM

Q: Record request: TGI value, item `O=S(=O)(O)c1c(N=Nc2c(O)ccc3ccccc23)ccc2ccccc12`
Result: > 100 µM

---

Below, each entry is listed alongside its reported GI50.
# Tested on: HT29 colon
# experimentalProtocol: NCI tumour cell line growth inhibition, 48 h

| molecule | GI50 |
| --- | --- |
| C/C=C(\C)C(=O)O[C@H]1C=CC(=O)O[C@H]1CNC(=O)[C@H](C)O | 18.9 µM |

For the next question, use this molecule.
Q: Record `S=C(N/N=C/c1ccccn1)Nc1ccccn1` : what is its GI50 with HT29 colon?
Result: 3.1 µM

---

Below, each entry is listed alongside its reported GI50.
# Test system: BT-549 breast
# experimentalProtocol: NCI tumour cell line growth inhibition, 48 h

Please review the entries below; each comes with its answer.
| compound | GI50 |
| --- | --- |
| S=C(N/N=C/c1ccccn1)Nc1ccccn1 | 1.99 µM |
| C[N+](C)(CCCCCC[N+](C)(C)CCCN1C(=O)c2cc3ccccc3cc2C1=O)CCCN1C(=O)c2ccccc2C1=O | > 37.5 µM |
| CN(C)CCCNC(=O)c1cc(NC(=O)c2cc(NC(=O)c3cc(NC(=O)CCc4c[nH]c5ccccc45)cn3C)cn2C)cn1C | > 100 µM |
| O=C(NC(=S)Nc1ccc(Cl)cc1)c1ccccc1 | > 100 µM |
| CCN(CC)CCCCCCCNc1c2ccc(Cl)cc2nc2ccc(OC)cc12 | 1.68 µM |
| CC1=Cc2cc3[n-]c(cc4nc(cc5[n-]c(cc1n2)cc5C)C(C)=C4CCC(=O)O)c(CCC(=O)O)c3C.[Pd+2] | 4.89 µM |
| O=C1c2ccccc2-c2c1c1ccccc1c(=O)n2CCCN1CCOCC1 | 8 µM |
| C[C@H]1CCC/C=C/[C@@H]2C[C@H](O)C[C@H]2[C@H](O)[C@@H](S(=O)CCN(C)C)CC(=O)O1 (some centres undefined) | 0.202 µM |

For the next question, use this compound.
Q: Record request: GI50 value, item `COc1cc2c(/C=C3/C(=O)Nc4ccccc43)c(Cl)n(Cc3ccccc3[N+](=O)[O-])c2cc1C`
Result: 9.16 µM

---

# Tested on: EKVX NSCLC
# experimentalProtocol: NCI tumour cell line growth inhibition, 48 h
Below, each entry is listed alongside its reported GI50.

Please review the entries below; each comes with its answer.
| molecule | GI50 |
| --- | --- |
| O=C1OC(=O)C2C1C1(c3ccccc3)C(c3ccccc3)=C(c3ccccc3)C2(c2ccccc2)S1=O (centres undefined) | > 100000 nM |
| O=C([CH-]C(=O)c1ccccc1)c1ccccc1.O=C([CH-]C(=O)c1ccccc1)c1ccccc1.[Nd+3].[OH-].[OH3+] | 9990 nM |
| S=C(Nc1ccc(Cl)cc1)Nc1ccc(Cl)cc1 (tested in a mixture with another compound) | 2250 nM |

For the next question, use this molecule.
Q: Record request: GI50 value, item `Cc1ccc2c(N)c(C(=O)N[C@H]3CCc4cc(N5CC6CCC(C5)N6)ccc4C3)sc2n1`
Result: 572 nM
